experiment: NCI Yeast Anticancer Drug Screen. Data for the bub3 strain (AID 167); conditions: S. cerevisiae bub3 mutant strain, at 50.0 µM, hits give high values
Compounds without any hit were thinned out: in the full panel of roughly 79,000, 15% have a hit.
Catalogue of compounds with associated growth inhibition
Express your answer in %, writing the number without its unit.

{"compound": "CCOC(=O)NC(=O)c1cn(CCN2CCN(c3ncnc4nc[nH]c34)CC2)c(=O)[nH]c1=O", "dataValue": -4.3}

Query :: For `NC(=O)C(=O)n1ncc(Cl)c(Cl)c1=O` , what is its reported growth inhibition?
Result :: 8.25

Query :: Return reported growth inhibition; argument: `CCOC(=O)/C(=C/O)NC(=O)c1ccccc1`
Result :: -9.95

Query :: For `Nc1[nH]c(=S)nc2snnc12` , what is its reported growth inhibition?
Result :: 3.1

Query :: // lookup growth inhibition for `N#CCc1csc(-c2ccccc2)n1`
Result :: 1.55

Query :: Bench note: what growth inhibition did `Cc1cc(N(CCC#N)CCC#N)ccc1/C(N=Nc1ccc([N+](=O)[O-])cc1)=N\NC(=O)c1cc(Cl)ccc1O` show?
Result :: -26.4

Query :: # query: growth inhibition of entry `c1ccc(SCCc2ccncc2)cc1`
Result :: 3.85

Query :: Suppose we examine the compound `O/N=C(\c1ccccc1)C1c2ccccc2-c2ccccc21` ; what growth inhibition value has been reported?
Result :: -5.9

Query :: State the recorded growth inhibition for this entry: `C/C(Cc1cccc2ccccc12)=N/NC(N)=O`
Result :: -12.1

Query :: Sample CC1CN(C(=O)/C=C/C(=O)OC2CCCCC2)C(C)CN1C(=O)/C=C/C(=O)OC1CCCCC1 (centres undefined) — what was its growth inhibition?
Result :: -4.45

Query :: What value of growth inhibition has been reported for the following compound? N[C@@H](CCC(=O)NC(Cc1ccccc1)C(=O)NCP(=O)(O)O)C(=O)O (some centres undefined)
Result :: -10.5

Query :: Entry under review: CCCCN1C(=O)C(NC(C)=O)C1COC(C)(C)C (centres undefined) . Reported growth inhibition?
Result :: -28.1

Query :: // lookup growth inhibition for CC(Br)CCl (centres undefined)
Result :: 14.4

Query :: For the compound `Clc1ccc(Cl)c(-c2csc(-c3cccnc3)n2)c1` , what growth inhibition is on record?
Result :: 7.6

====

assay: NCI Yeast Anticancer Drug Screen. Data for the mec2-1 strain (AID 157); settings: S. cerevisiae mec2-1 strain, at 50.0 µM, hits give high values
This is part of a sample that, as a whole, favours compounds with a hit. Of some 79,000 tested, about 15% had one in any assay.
experimentalEndpoint: growth inhibition (%)
Unit % implied. Number only.

Below: 5 compounds and their reported growth inhibition.
{"compound": "CC(=O)OC1CCC2(C)C(=CCC3C4CCC(=O)NC4(C)CCC32)C1 (configuration not stated)", "growth inhibition, %": -1.8}
{"compound": "O=C1/C(=C\\c2ccc(O)cc2)CCC/C1=C/c1ccc(Cl)c(Cl)c1", "growth inhibition, %": 27.4}
{"compound": "O=C1C2CCOC2N=C2CCCN12 (configuration not stated)", "growth inhibition, %": 5.55}
{"compound": "COc1cc2c(c(OC)c1OC)-c1ccc(SC)c(=O)cc1[C@@H](NC(=O)C(F)(F)F)CC2", "growth inhibition, %": -53.7}
{"compound": "CCOC(=O)COc1ccc(Cc2ccc3c(c2)OCO3)cc1C", "growth inhibition, %": 3.1}

Okay, next one:
Query :: Record request: growth inhibition value, item `CC(/C=N/Nc1ccccc1)=N\N=c1/scc(-c2ccc(Cl)cc2)n1-c1ccc(Cl)cc1`
Result :: 4.65

====

test: NCI Yeast Anticancer Drug Screen. Data for the mec2-1 strain (AID 157); conditions: S. cerevisiae mec2-1 strain, at 50.0 µM, hits give high values
Compounds without any hit were thinned out: in the full panel of roughly 79,000, 15% have a hit.
# reported growth inhibition; entries follow
Write down the numeric answer in % and omit the unit.

{"compound": "COc1ccc(OC)c2cc3c(cc12)C(=O)c1ccccc1C3=O", "growth inhibition, %": 70.2}

Query :: Fill in the blank: the reported growth inhibition of N#CC1C2CCC(C2)C1CCCN (stereo unspecified) is ____.
Result :: -8.75

Query :: Consider the compound `CN(Cc1ccccc1)C(=O)Nc1ccc(F)c([N+](=O)[O-])c1` and give its measured growth inhibition.
Result :: 28.6

Query :: Quick one: growth inhibition of `CC1(C)CC(=O)C(C=O)C(=O)C1` ?
Result :: -13.7

Query :: What value of growth inhibition has been recorded for this entry: `CCOC(=O)C(=O)Nc1ccccc1CC`
Result :: 2.9

Query :: // query growth inhibition value for entry `O=C(NO)Oc1cccc2ccccc12`
Result :: 0.55

Query :: Reported growth inhibition for CC(=O)N1c2ccccc2C(C)(C)C1O (stereo unspecified) : what is it?
Result :: 17.1

Query :: Data request, read-out growth inhibition, for C=C1C(C)C2C(Cc3ccccc3)NC(=O)C23OC(=O)/C=C\CC(=O)CCC(C)C/C=C/C3C1O (stereo unspecified)
Result :: 93.2

Query :: For the compound `N#C/C(=C/n1c(=S)[nH]c2ccc([N+](=O)[O-])cc21)C(N)=O` , what growth inhibition is on record?
Result :: -41

Query :: I have this compound here, `CCOC(OCC)c1ccccc1OC` , and I need its recorded growth inhibition.
Result :: 1.05

Query :: Look up growth inhibition: `CC(=O)Nc1ccc(S(=O)(=O)N/N=C/c2ccc3c(c2)OCO3)cc1`
Result :: -20.2

Query :: What value of growth inhibition has been reported for the following compound? `COC(=O)c1cc(-c2ccccc2)nc2c(Cl)cc(Cl)cc12`
Result :: -12.1

Query :: Which growth inhibition value belongs to `Cc1cc(C)c(CC(=O)NCC(=O)NN)c(C)c1` ?
Result :: -24.9

Query :: growth inhibition lookup needed for `O=C1C=CC(=Nc2ccc(OC(=O)c3ccccc3)cc2)C=C1` , thanks.
Result :: -4.95

Query :: growth inhibition lookup needed for `C=CCc1ccc(OC(=O)Nc2ccc(S(=O)(=O)N(C)C)cc2)c(OC)c1` , thanks.
Result :: 2

Query :: I would be grateful if you could share the reported growth inhibition for `CS(=O)(=O)OC(OS(C)(=O)=O)(OS(C)(=O)=O)OS(C)(=O)=O` .
Result :: 6.2

Query :: Look up growth inhibition for this compound: `CC#Cc1c(C#CC)c(OC)c2c(c1OC)C(=O)c1ccccc1C2=O`
Result :: -29.3

Query :: # query: growth inhibition of entry `C/C=C/C#CC#C/C=C/C=C/CC`
Result :: 0.7

Query :: Requested field: growth inhibition. Item: `CCOC(=O)c1nc(C)oc1C(=O)OCC`
Result :: -12.9

Query :: Quick one: growth inhibition for CCCC(CCc1ccccc1)C(N)=O (stereo unspecified) ?
Result :: -5.7

Query :: # get_value(readout='growth inhibition', item= CSCCC(NC(=O)OCc1ccccc1)P(=O)(O)c1ccccc1 (stereo unspecified) )
Result :: -41.1

Query :: # input compound: `CCOC(=O)c1c(O)[nH]c(=O)c(CC)c1C` ; wanted: its growth inhibition
Result :: -29.3

Query :: What measured growth inhibition goes with CC(NCc1c(O)ccc2c(-c3ccccc3)cc(=O)oc12)C(=O)O (stereo unspecified) ?
Result :: -19.1

Query :: Endpoint output: growth inhibition of `COC(=O)CCC(=O)Nc1cc(Cl)ccc1Cl` . Value?
Result :: -16.1

Query :: Which growth inhibition is listed for CC(=O)NC1=NCC(CSc2nc3ccccc3s2)S1 (stereo unspecified) ?
Result :: -14.3

Query :: Item under review: CC(NC(=O)NCCCl)C1CC1 (stereo unspecified) . Reported growth inhibition?
Result :: 0

====

test: NCI Yeast Anticancer Drug Screen. Data for the sgs1 mgt1 strain (AID 161);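 further: 0% = growth of cultures given vehicle only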; conditions: S. cerevisiae sgs1 mgt1 strain, at 50.0 µM
About 79,000 compounds went through this panel and 15% of them were active in at least one assay; those are over-represented in the sample as a whole. Activity calls are given as the source filed them. Rule as the data show it: active = growth inhibition above about 70%; inactive = the rest.
Use one of these outcomes when replying: YES = active, NO = inactive

Reference set, count: 2
{"compound": "Cc1ccc(S(=O)(=O)OCC2C(c3ccccc3)CCC(c3ccccc3)C2COS(=O)(=O)c2ccc(C)cc2)cc1 (stereo not drawn)", "label": "NO"}
{"compound": "CCOCCC(=N)OCC", "label": "NO"}

Query :: Please let me know the test result on file for `O=C(NC1CCCCC1)OC/C=C\c1ccccc1` .
Result :: NO

====

experiment: NCI Yeast Anticancer Drug Screen. Data for the mlh1 rad18 strain (AID 175); settings: S. cerevisiae mlh1 rad18 strain growth inhibition; at 50.0 µM; hits give high values
Compounds without any hit were thinned out: in the full panel of roughly 79,000, 15% have a hit.
experimentalEndpoint: growth inhibition (%)
Note: unit % is implicit; provide only the numeric part.

// below: answered compounds
{"compound": "NC(N)=N/N=C(\\c1ccc(Cl)cc1)C1CC1", "growth inhibition (%)": 10}
{"compound": "COC(=O)/C=C(/C=C1/C(C#N)=C(N)N(c2ccc(Cl)cc2)C1(C)/C(=C/C(=O)OC)C(=O)OC)C(=O)OC (stereo not drawn)", "growth inhibition (%)": 10.7}
{"compound": "N#CC(c1ccccc1)C1CCN(Cc2ccccc2)CC1 (stereo not drawn)", "growth inhibition (%)": 33.1}

Query :: Returns the measured growth inhibition for the input compound. Input: `CCCCn1c2nc(=O)n(C)c(=O)c-2cc2ccccc21`
Result :: 34.7

Query :: # growth inhibition lookup, item `Cn1c(=O)c2conc2n(-c2ccc(Cl)cc2)c1=O`
Result :: -3.25

Query :: Given `O=C1NC(N2CCCCC2)=N/C1=C\c1ccc(Cl)cc1` , state its recorded growth inhibition.
Result :: -38.5

Query :: # query: growth inhibition of entry `CC(C)Nc1ncnc2c1cnn2-c1ccccc1`
Result :: -11.3

Query :: Data request, read-out growth inhibition, for CNC(=O)c1ccccc1CC(O)c1ccccc1 (stereo not drawn)
Result :: 8.95

Query :: # query: growth inhibition of entry `O=C(CCc1ccc(O)cc1)c1c(O)cc(O)cc1O`
Result :: -9.05

Query :: Quick one: growth inhibition for NCC(O)COCc1ccccc1 (stereo not drawn) ?
Result :: -0.35

Query :: Which value of growth inhibition has been reported for `CCOC(=O)c1nc2ccc(OC)cc2c2c1Cc1ccccc1-2` in the records?
Result :: -24.4

Query :: Name the recorded growth inhibition for `CSc1nc2ncnc(N(C)C)c2[nH]1` .
Result :: -16.5

Query :: Please look up its growth inhibition: `O=[N+]([O-])c1ccccc1SCl`
Result :: 6.7
